Origin of measurements: BindingDB's records for doi:10.1021/jm900597q

// pIC50 collected for Reverse transcriptase/RNaseH (Human immunodeficiency virus 1)
Give bare numbers, as −log10 of the molar value.

INSERT INTO assay_data (compound, test_target, value_type, test_result) VALUES
  ('CC(C)c1ccc(O)c(=O)c(O)c1 [hydroxytropolone, 3]', 'Reverse transcriptase/RNaseH (Human immunodeficiency virus 1)', 'pIC50', 6.18);

// switching to the query compound
Q) Identify the reported pIC50 for the following entry. O=C(O)c1nc(-c2ccccc2)nc(O)c1O
A) 4.89
